- measurement_notes: Primary qHTS for inhibitors of nuclear receptor binding SET domain protein 2 (NSD2) in an RCH-ACV wild type WT cells (2C) (AID 1645877); also: nearly all actives have a fitted effect of over 70% in size
- assay_setup: RCH-ACV (leukaemia line) NSD2 WT (2C) viability, CellTiter-Glo, 72 h; series mostly up to 44.9 µM
- Text: Assay Provider: Jonathan D. Licht, MD University of Florida College of Medicine, Gainesville, FL Mutations in epigenetic regulators are common in relapsed pediatric acute lymphoblastic leukemia (ALL). Here, we uncovered the mechanism underlying the relapse of ALL driven by an activating mutation of the NSD2 histone methyltransferase (p.E1099K). […] Correction of this mutation restored glucocorticoid sensitivity. […]
Results filed as inconclusive are left out. Calls of active or inactive are those of the source. Calls follow the shape of the dose curve; as a rule, active = well fitted inhibition curve with a large enough effect; inconclusive = small, poorly fitted or top-dose-only effect; inactive = no such curve, though single readings can be large or run the other way.
Pick one and only one: yes (1) for active, no (0) for inactive

Field: example entries. Status: answers known.
molecule: C[C@H]1O[C@@H](n2cnc3c(N)ncnc32)C[C@@H]1O
category: no (0)

molecule: CC1=CC2/C=C(\C)CCCC(O)/C=C/C(=O)OC23C(=O)NC(CC(C)C)C3C1C (centres undefined)
category: no (0)

molecule: C/C=C(\C)C(O)C(C)/C=C(C)/C=C/C/C(C)=C/Cc1nc(OC)c(OC)c(O[C@@H]2O[C@@H](C)[C@H](O)[C@@H](O)[C@H]2O)c1C (some centres undefined)
category: yes (1)

molecule: COC1C(O)C(C)OC(OC2C(CO)O[C@@H](O[C@@H]3CC4CCC5C(CC[C@]6(C)[C@@H](C7=CC(=O)OC7)CC[C@]56O)[C@@]4(C)[C@H](OC(C)=O)C3)C(O)C2O)C1O (some centres undefined)
category: yes (1)

Prompt: Outcome logged for C[C@]12CC[C@H](O)C[C@@H]1CC[C@@H]1[C@@H]2CC[C@]2(C)C(=O)CC[C@@H]12 in this assay:
Completion: no (0)

Prompt: And the next one, COC[C@]12CN(C)C3C4[C@H](OC)[C@H]1C3(C(OC)C[C@H]2O)[C@H]1C[C@@]2(O)[C@H](OC(=O)c3ccccc3)[C@@H]1[C@]4(O)[C@@H](O)[C@@H]2OC (some centres undefined) ?
Completion: no (0)

Prompt: Then CN1CCc2cc3c(cc2[C@H]1[C@@H]1OC(=O)c2c1ccc1c2OCO1)OCO3 ?
Completion: no (0)

Prompt: Please answer likewise for CC(=O)O[C@@H]1[C@H]2CC[C@H]3[C@@](C)(O)[C@@H]4C[C@H](O)C(C)(C)[C@@]4(O)[C@H](O)C[C@@]13C[C@@]2(C)O
Completion: no (0)

Prompt: Next molecule up: COc1ccc(CC2C(=O)NC(C)C(=O)N(C)C3Cc4ccc(cc4)Oc4cc(ccc4OC4OC(CO)C(O)C(O)C4O)CC(C(=O)NC(C)C(=O)NC(CCC(=O)O)C(=O)N2C)N(C)C3=O)cc1 (centres undefined)
Completion: yes (1)

Prompt: Also, CN1CN(c2ccccc2)C2(CCN(CCCC(=O)c3ccc(F)cc3)CC2)C1=O please.
Completion: yes (1)

Prompt: Proceed to CC[C@@H]1C[C@H]2CC[C@H](O2)[C@H](C)C(=O)O[C@@H](C)C[C@@H]2CC[C@@H](O2)[C@@H](C)C(=O)O[C@H](C)C[C@H]2CC[C@H](O2)[C@H](C)C(=O)O[C@@H](C)C[C@@H]2CC[C@@H](O2)[C@@H](C)C(=O)O1
Completion: yes (1)

Prompt: What do you have for CCCCCn1cc(C(=O)c2cccc3ccccc23)c2ccccc21 ?
Completion: no (0)

The measurements presented in this section are drawn from PubChem BioAssay (NCATS).
